Reported self-cleavage values for a set of variants
B1: Hairpin Ribozyme (parent)
chain: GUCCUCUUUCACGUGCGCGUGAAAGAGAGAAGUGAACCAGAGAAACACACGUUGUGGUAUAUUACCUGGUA

Variants of: B1
protocol-details: self-cleavage, relative activity (ratio to wild type); higher = more cleavage; co-transcriptional
Lab note: jot the number down without any unit.

Task item: I have this variant here, C16G G56C , and I need its recorded self-cleavage.
Reply: 0.2

Task item: Endpoint output: self-cleavage of A28C C65U . Value?
Reply: 0.249

Task item: For the variant A41G G42A , what self-cleavage is on record?
Reply: 0.282

Task item: // self-cleavage lookup, key: U9A G21A
Reply: 0.573

Task item: Can you share its self-cleavage? I mean this variant: U14G U67G
Reply: 0.243

Task item: Which self-cleavage reading was recorded for the variant G15U G17A ?
Reply: 1.05

Task item: Give the measured self-cleavage of A23G G68A .
Reply: 0.311

Task item: Requested read-out: self-cleavage. Entry: C6A A28C
Reply: 0.233

Task item: Using the record for U8A A45G , report its self-cleavage.
Reply: 0.193

Task item: Which measured self-cleavage value corresponds to A26C A43G ?
Reply: 0.144

Task item: // lookup self-cleavage for U7G A30C
Reply: 0.0485

Task item: Entry U7C A35G : reported self-cleavage = ?
Reply: 0.931
